Data provenance: DBAASP

I'd be grateful if you could share measured MIC for these entries.
# System: Staphylococcus aureus MR
One number for each entry, in µM.

molecule | unitInfo | testResult
CC[C@H](C)[C@H](NC(=O)[C@H](Cc1cnc[nH]1)NC(=O)[C@H](CCC(N)=O)NC(=O)[C@H](CC(C)C)NC(=O)[C@@H](N)Cc1ccccc1)C(=O)N[C@H](C(=O)NCC(=O)N[C@@H](C)C(=O)N[C@@H](CC(C)C)C(=O)NCC(=O)N[C@@H](CCCCN)C(=O)N[C@@H](CC(C)C)C(=O)N[C@@H](Cc1ccccc1)C(N)=O)[C@@H](C)CC | µM | 6.2

Input CC[C@H](C)[C@H](NC(=O)[C@H](CC(C)C)NC(=O)[C@H](CS)NC(=O)[C@H](Cc1cnc[nH]1)NC(=O)[C@H](C)NC(=O)[C@H](C)N)C(=O)NCC(=O)N[C@@H](CCCN=C(N)N)C(=O)N[C@@H](CCCCN)C(N)=O [AAHCLIGRK] . Output MIC: 15
